- target system: Ecm22 (UniProt Q05958)
- Sequence: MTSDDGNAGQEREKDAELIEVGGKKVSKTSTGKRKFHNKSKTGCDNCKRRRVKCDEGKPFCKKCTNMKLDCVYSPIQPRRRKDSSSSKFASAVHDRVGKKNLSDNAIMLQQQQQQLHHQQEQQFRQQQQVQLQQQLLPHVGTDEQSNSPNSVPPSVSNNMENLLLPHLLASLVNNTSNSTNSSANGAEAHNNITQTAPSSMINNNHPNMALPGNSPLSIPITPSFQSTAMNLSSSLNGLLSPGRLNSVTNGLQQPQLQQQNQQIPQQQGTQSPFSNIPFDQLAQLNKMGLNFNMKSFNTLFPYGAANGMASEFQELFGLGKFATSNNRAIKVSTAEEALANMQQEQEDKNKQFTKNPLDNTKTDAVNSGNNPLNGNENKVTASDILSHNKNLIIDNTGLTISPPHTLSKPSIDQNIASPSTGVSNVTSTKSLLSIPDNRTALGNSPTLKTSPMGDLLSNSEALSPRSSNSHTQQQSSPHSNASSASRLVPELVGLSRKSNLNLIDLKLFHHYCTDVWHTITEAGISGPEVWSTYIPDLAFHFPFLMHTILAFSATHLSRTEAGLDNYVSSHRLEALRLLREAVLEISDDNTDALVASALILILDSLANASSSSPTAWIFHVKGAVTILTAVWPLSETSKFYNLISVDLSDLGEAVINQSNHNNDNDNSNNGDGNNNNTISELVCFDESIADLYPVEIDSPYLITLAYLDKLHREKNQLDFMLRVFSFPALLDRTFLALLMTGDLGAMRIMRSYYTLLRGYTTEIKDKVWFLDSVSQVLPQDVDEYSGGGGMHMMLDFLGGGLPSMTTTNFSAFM
- measurement description: PBM E-score (8-mer binding enrichment) (E-score (-0.5 to 0.5)); higher = stronger / more preferred TF binding
- experimental setup: protein concentration: 200 nM; construct: GST-full length
The full ranking holds about 33,000 sequences; the median of “E-score (-0.5 to 0.5)” is about -0.041, and the highest 2% start at about 0.37. The sample holds the highest values, similar sequences and a random draw of the others, so the mix is not that of the screen.
Record form. Attribute: PBM E-score. Fill in for each entry.
One number for each entry.

Before answering, review these 2 worked examples.
>  <construct sequence>
ATCTGCAC

>  <value kind>
PBM E-score

>  <measured value>
-0.117

$$$$
>  <construct sequence>
ACACGACC

>  <value kind>
PBM E-score

>  <measured value>
0.186

$$$$

Look at each sequence and report its PBM E-score.
1. AATTTCTC
2. AATACCGG
3. GCCTCTAC
4. TAGCTGAA

0.0237
-0.042
-0.123
0.0371

I'm hoping you can list PBM E-score for every sequence here, please.
1. GCAGTGCC
2. GAATCGAC
3. ACAGTTCC
4. CAGGGTAG
5. ACTCAACC
6. GACGCCCC
7. GTACGACA
8. ACACGACA

1. -0.179
2. 0.163
3. -0.0566
4. -0.148
5. -0.0151
6. -0.0249
7. 0.48
8. 0.233

Quick request: PBM E-score for each listed item, please.
1. CTAGCGGC
2. CATGTACG

1: -0.29; 2: 0.399
